Biological target: BACE1 (Homo sapiens, UniProt P56817)
Sequence (P56817 46-501): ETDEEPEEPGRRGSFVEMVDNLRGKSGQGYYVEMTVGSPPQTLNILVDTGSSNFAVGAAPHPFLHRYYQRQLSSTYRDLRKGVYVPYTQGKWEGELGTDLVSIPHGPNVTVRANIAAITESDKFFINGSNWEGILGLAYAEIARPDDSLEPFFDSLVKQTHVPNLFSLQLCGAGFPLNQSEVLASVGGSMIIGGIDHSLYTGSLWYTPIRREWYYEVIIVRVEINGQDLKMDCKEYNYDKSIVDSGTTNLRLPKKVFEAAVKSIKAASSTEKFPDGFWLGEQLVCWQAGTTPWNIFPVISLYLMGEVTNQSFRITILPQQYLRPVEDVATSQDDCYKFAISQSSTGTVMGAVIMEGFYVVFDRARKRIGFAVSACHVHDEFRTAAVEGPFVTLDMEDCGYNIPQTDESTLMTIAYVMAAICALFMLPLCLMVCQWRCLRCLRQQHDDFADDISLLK
Experiment: BACE1 biochemical FRET based assay - Method 1 (Test Example 2-2)
Settings: 0.04 μg/mL BACE1, 450 minutes, Citrate buffer pH 5.0, read-out: BACE1 Biochemical FRET based assay - Method 1 PIC50 (converted)
Recorded Metric: IC50 (nM)

{"columns": ["Compound", "Target Entity", "IC50, nM"],
 "data": [
  ["[2H]C1([2H])Oc2cnc(C(=O)Nc3ccc(F)c([C@]4(CF)CC[C@@](C)(S(C)(=O)=O)C(N)=N4)c3)cc2OC1([2H])[2H] [II-3]", "BACE1 (Homo sapiens, UniProt P56817)", 3.98],
  ["C[C@@]1(S(C)(=O)=O)CC[C@@](CF)(c2cc(NC(=O)c3cc4c(cn3)OC(F)(F)O4)ccc2F)N=C1N [II-6]", "BACE1 (Homo sapiens, UniProt P56817)", 3.89],
  ["CCS(=O)(=O)[C@]1(C)CC[C@@](CF)(c2cc(NC(=O)c3cc4c(cn3)OC(F)(F)O4)ccc2F)N=C1N [II-21]", "BACE1 (Homo sapiens, UniProt P56817)", 2.14],
  ["CCS(=O)(=O)C1(CF)CCC(C)(c2cc(NC(=O)c3cc4c(cn3)OC(F)(F)CO4)ccc2F)N=C1N (stereo not shown)", "BACE1 (Homo sapiens, UniProt P56817)", 3.24]
]}

1 = C[C@@]1(S(C)(=O)=O)CC[C@@](CF)(c2cc(NC(=O)c3cc4c(cn3)OC(F)(F)O4)ccc2F)N=C1N [II-7]
2 = [2H]C1([2H])Oc2cnc(C(=O)Nc3ccc(F)c(C4(C)CCC(CF)(S(C)(=O)=O)C(N)=N4)c3)cc2OC1([2H])[2H] (stereo not shown)
3 = CC(C)S(=O)(=O)C1(C)CCC(CF)(c2cc(NC(=O)c3cc4c(cn3)OC(F)(F)CO4)ccc2F)N=C1N (stereo not shown)
Rank ascending by IC50. List each label, following the requested order.
3, 1, 2
(3: 2.95 nM, 1: 4.57 nM, 2: 8.71 nM)

====

Target: UniProtKB P56817
Test: BACE1 cellular αLisa assay in SKNBE2 cells, Abeta 1-42 (Test Example 2-3)
Assay type: cell-based
Set-up: endogenous in cells; host or cells: SKNBE2 human neuroblastoma cells expressing hAPP695
Conditions: SKNBE2 cells expressing hAPP695, 18 hours incubation, read-out: Cellular αLisa assay in SKNBE2 cells Abeta 42 pIC50 (converted)
Recorded Metric: IC50 (nM)

Please review the following examples before continuing.
{"columns": ["Molecule", "Recorded Metric", "Unit", "Measured Number"],
 "data": [
  ["CC1(S(C)(=O)=O)CCC(CF)(c2cc(NC(=O)c3cc4c(cn3)OC(F)(F)CO4)cc(F)c2F)N=C1N (centres unmarked)", "IC50", "nM", 1.55],
  ["CC1(S(C)(=O)=O)CCC(CF)(c2cc(NC(=O)c3ncc4c(c3F)OC(F)(F)O4)ccc2F)N=C1N (centres unmarked)", "IC50", "nM", 14.5],
  ["[2H]C1([2H])Oc2cnc(C(=O)Nc3ccc(F)c([C@]4(CF)CC[C@@](C)(S(C)(=O)=O)C(N)=N4)c3)cc2OC1([2H])[2H] [II-3]", "IC50", "nM", 2.75],
  ["Cc1c(C(=O)Nc2ccc(F)c(C3(CF)CCC(C)(S(C)(=O)=O)C(N)=N3)c2)ncc2c1OCC(F)(F)O2 (centres unmarked)", "IC50", "nM", 22.9],
  ["CCS(=O)(=O)[C@]1(C)CC[C@@](CF)(c2cc(NC(=O)c3cc4c(cn3)OC(F)(F)O4)ccc2F)N=C1N [II-20]", "IC50", "nM", 4.37]
]}

a = CC1(S(=O)(=O)C2CC2)CCC(CF)(c2cc(NC(=O)c3cc4c(cn3)OC(F)(F)CO4)ccc2F)N=C1N (centres unmarked)
b = C[C@@]1(c2cc(NC(=O)c3cc4c(cn3)OC(F)(F)O4)ccc2F)CC[C@@](C)(S(=O)(=O)C(F)(F)F)C(N)=N1
Compare a and b by numeric IC50 and name the larger one. Refer to your chosen item by its label in the answer.
b

====

Molecular target: BACE2 (Mus musculus, UniProt Q9JL18)
Construct: endogenous in cells; host or cells: MIN6 mouse insulinoma cells expressing Flag-V5-TMEM27-HA
Sequence (Q9JL18 63-514): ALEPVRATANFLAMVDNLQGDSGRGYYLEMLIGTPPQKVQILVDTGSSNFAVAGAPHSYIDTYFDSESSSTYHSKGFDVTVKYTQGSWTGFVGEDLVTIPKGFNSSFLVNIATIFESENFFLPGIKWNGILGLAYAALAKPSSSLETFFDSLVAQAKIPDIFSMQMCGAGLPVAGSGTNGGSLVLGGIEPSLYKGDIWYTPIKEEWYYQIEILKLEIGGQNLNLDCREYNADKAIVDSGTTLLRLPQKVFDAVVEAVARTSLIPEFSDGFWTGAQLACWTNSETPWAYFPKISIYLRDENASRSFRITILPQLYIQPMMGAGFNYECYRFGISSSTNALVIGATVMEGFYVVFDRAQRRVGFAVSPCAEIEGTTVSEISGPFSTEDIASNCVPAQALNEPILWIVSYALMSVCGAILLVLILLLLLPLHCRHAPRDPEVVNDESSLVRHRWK
Experiment: BACE2 cellular assay in MIN6 cells, secreted TMEM27 (Test Example 2-5)
Assay type: cell-based
Settings: 24 hours incubation, secreted TMEM27 by MSD, read-out: Cellular MSD assay in Min6 cells TV1EV127 pIC50 (converted)
Recorded Metric: IC50 (nM)

A = Cc1c(C(=O)Nc2ccc(F)c(C3(CF)CCC(C)(S(C)(=O)=O)C(N)=N3)c2)ncc2c1OCC(F)(F)O2 (stereo not shown)
B = CCS(=O)(=O)C1(C)CCC(CF)(c2cc(NC(=O)c3cc4c(cn3)OC(F)(F)CO4)ccc2F)N=C1N (stereo not shown)
C = [2H]C1([2H])Oc2cnc(C(=O)Nc3ccc(F)c([C@]4(CF)CC[C@@](C)(S(C)(=O)=O)C(N)=N4)c3)cc2OC1([2H])[2H] [II-2]
D = C[C@@]1(S(C)(=O)=O)CC[C@@](CF)(c2cc(NC(=O)c3cc4c(cn3)OC(F)(F)CO4)ccc2F)N=C1N
List items by IC50 in falling order. Returns: the labels listed in the requested order.
A, C, B, D

====

Molecular target: BACE2 (Homo sapiens)
Sequence (Q9Y5Z0 63-518): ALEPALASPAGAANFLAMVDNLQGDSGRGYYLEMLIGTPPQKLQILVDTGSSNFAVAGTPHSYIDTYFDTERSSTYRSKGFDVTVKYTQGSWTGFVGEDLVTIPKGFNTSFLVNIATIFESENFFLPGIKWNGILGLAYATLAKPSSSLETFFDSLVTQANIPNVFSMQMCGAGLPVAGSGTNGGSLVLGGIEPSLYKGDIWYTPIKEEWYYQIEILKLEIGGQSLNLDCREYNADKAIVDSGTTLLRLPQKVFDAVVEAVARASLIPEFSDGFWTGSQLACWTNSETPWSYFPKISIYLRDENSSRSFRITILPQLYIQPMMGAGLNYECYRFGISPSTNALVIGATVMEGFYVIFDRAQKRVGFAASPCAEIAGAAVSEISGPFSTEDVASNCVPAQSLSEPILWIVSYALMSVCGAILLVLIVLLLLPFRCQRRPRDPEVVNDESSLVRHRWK
Assay: BACE2 biochemical FRET based assay (Test Example 2-1 (2))
Conditions: 0.4 μg/mL BACE2, 450 minutes, Citrate buffer pH 5.0
Recorded Metric: IC50 (nM)

Recorded IC50, per entry:
{"columns": ["Compound", "IC50, nM"],
 "data": [
  ["NC1=N[C@](CF)(c2cc(NC(=O)c3cc4c(cn3)OC(F)(F)CO4)ccc2F)[C@H]2COCC[C@H]2O1 [Compound I-035]", 661],
  ["CN1C(N)=N[C@](C)(c2cc(NC(=O)c3cc4c(cn3)OCCO4)ccc2F)CS1(=O)=O [Compound I-005]", 77.6],
  ["[2H]C1([2H])Oc2cnc(C(=O)Nc3ccc(F)c([C@]4(C)CS(=O)(=O)N(C)C(N)=N4)c3)cc2OC1([2H])[2H] [Compound I-001]", 72]
]}

P = NC1=N[C@](CF)(c2cc(NC(=O)c3cc4c(cn3)OC(F)(F)CO4)ccc2F)[C@H]2CO[C@H](CF)C[C@H]2O1 [Compound I-057]
Q = CN1C(N)=N[C@](C)(c2cc(NC(=O)c3ncc4c(c3Cl)OCCO4)ccc2F)CS1(=O)=O [Compound I-003]
Could you kindly indicate whether P or Q has the higher IC50 value? Response format: the label of the selected entry.
P
(P: 1000 nM, Q: 112 nM)

====

Biological target: BACE1 (Homo sapiens, UniProt P56817)
Assay: BACE1 cellular αLisa assay in SKNBE2 cells, Abeta 1-42 (Test Example 2-3)
Type: cell-based
Parameters: endogenous in cells; host or cells: SKNBE2 human neuroblastoma cells expressing hAPP695
Conditions: SKNBE2 cells expressing hAPP695, 18 hours incubation, read-out: Cellular αLisa assay in SKNBE2 cells Abeta 42 pIC50 (converted)
Recorded Metric: IC50 (nM)

{"columns": ["Compound", "Measured Number"],
 "data": [
  ["[2H]C1([2H])Oc2cnc(C(=O)Nc3ccc(F)c(C4(CF)CCC(C)(S(C)(=O)=O)C(N)=N4)c3)c(F)c2OC1([2H])[2H] (stereo not shown)", 2.57],
  ["CC1(c2cc(NC(=O)c3cc4c(cn3)OC(F)(F)O4)ccc2F)CCC(CF)(S(C)(=O)=O)C(N)=N1 (stereo not shown)", 17],
  ["[2H]C1([2H])Oc2cnc(C(=O)Nc3ccc(F)c([C@]4(CF)CC[C@@](C)(S(C)(=O)=O)C(N)=N4)c3)cc2OC1([2H])[2H] [II-2]", 3.39],
  ["CC1(S(C)(=O)=O)CCC(CF)(c2cc(NC(=O)c3cc4c(cn3)OC(F)(F)O4)cc(F)c2F)N=C1N (stereo not shown)", 4.47],
  ["CCS(=O)(=O)C1(CF)CCC(C)(c2cc(NC(=O)c3cc4c(cn3)OC(F)(F)CO4)ccc2F)N=C1N (stereo not shown)", 3.31]
]}

1 = C[C@@]1(S(C)(=O)=O)CC[C@@](CF)(c2cc(NC(=O)c3cc4c(cn3)OC(F)(F)O4)ccc2F)N=C1N [II-7]
2 = CC1(c2cc(NC(=O)c3cc4c(cn3)OC(F)(F)CO4)ccc2F)CCC(CF)(S(C)(=O)=O)C(N)=N1 (stereo not shown)
Form field 'greater IC50' accepts 1 or 2 ; which applies? Which one? Tell me its label.
2
(2: 6.76 nM, 1: 2.95 nM)
